- Measured on: Hap1 (UniProt P0CE41)
- Sequence (P0CE41 whole entry): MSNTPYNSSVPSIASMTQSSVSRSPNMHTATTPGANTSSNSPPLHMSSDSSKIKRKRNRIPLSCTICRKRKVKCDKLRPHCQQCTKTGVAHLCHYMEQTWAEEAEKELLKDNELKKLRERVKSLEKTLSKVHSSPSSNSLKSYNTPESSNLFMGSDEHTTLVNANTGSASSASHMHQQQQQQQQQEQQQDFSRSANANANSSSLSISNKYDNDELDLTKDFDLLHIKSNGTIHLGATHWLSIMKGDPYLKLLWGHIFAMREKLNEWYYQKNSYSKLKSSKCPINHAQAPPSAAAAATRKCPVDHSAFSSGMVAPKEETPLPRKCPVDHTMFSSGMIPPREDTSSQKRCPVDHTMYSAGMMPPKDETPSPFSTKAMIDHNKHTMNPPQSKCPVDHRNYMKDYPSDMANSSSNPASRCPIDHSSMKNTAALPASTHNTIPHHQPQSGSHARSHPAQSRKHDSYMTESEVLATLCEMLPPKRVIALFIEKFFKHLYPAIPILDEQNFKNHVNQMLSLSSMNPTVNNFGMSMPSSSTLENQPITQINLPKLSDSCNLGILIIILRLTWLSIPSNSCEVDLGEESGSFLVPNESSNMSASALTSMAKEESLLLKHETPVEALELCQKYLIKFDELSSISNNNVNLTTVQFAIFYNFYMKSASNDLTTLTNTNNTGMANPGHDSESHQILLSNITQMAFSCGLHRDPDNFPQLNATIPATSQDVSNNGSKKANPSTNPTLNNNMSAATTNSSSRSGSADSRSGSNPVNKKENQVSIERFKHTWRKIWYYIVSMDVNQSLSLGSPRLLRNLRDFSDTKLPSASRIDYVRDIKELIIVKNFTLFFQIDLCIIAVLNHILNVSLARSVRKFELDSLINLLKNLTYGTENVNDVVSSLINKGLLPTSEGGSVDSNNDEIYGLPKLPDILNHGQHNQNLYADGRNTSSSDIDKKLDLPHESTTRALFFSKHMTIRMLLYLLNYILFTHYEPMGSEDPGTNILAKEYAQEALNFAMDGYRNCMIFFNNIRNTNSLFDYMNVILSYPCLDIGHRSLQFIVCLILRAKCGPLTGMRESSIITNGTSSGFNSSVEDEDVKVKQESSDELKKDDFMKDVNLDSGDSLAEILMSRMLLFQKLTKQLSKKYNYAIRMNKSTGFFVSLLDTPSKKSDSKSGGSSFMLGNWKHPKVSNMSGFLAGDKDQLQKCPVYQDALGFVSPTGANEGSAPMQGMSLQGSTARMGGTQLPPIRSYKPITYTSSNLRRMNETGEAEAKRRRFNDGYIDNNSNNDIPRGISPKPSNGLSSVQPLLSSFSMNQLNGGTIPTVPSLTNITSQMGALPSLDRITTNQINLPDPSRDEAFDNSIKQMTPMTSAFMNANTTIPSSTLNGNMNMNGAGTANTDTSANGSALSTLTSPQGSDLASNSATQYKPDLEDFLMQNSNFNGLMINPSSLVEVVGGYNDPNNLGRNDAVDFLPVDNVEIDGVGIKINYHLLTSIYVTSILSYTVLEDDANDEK
- Assay notes: PBM E-score (8-mer binding enrichment) (E-score (-0.5 to 0.5)); higher = stronger / more preferred TF binding
- Study conditions: protein concentration: 200 nM; construct: GST-DNA-binding domain
The full ranking holds about 33,000 sequences; the median of “E-score (-0.5 to 0.5)” is about -0.053, and the highest 2% start at about 0.37. What follows is part of a selection rich in the highest values, with near analogues and random picks from the rest.
Overview of reported PBM E-score across a group of sequences:
Enter a number only.

Examples with their reported PBM E-score follow.
In [3]: df
Out[3]:
   sequence_chain            measured_on  measure_name  measured_result
0        GACAGCAA  Hap1 (UniProt P0CE41)   PBM E-score           -0.221
1        ATTTTCGC  Hap1 (UniProt P0CE41)   PBM E-score           0.0139
2        GCGCAAAA  Hap1 (UniProt P0CE41)   PBM E-score         -0.00131
3        ACGCCCGG  Hap1 (UniProt P0CE41)   PBM E-score            0.377
4        ATGCCGGA  Hap1 (UniProt P0CE41)   PBM E-score              0.4

# evaluate next
(Q) What measured PBM E-score is associated with GGGCCCGA on Hap1 (UniProt P0CE41)?
(A) 0.317

----------
- Measured on: Hap1 (UniProt P0CE41)
- Assay notes: PBM E-score (8-mer binding enrichment) (E-score (-0.5 to 0.5)); higher = stronger / more preferred TF binding
- Study conditions: protein concentration: 200 nM; construct: GST-DNA-binding domain
In all, about 33,000 sequences were measured (“E-score (-0.5 to 0.5)”: median about -0.053, highest 2% from about 0.37 on). The list comes from a sample in which the highest values are over-represented; it also holds close analogues and randomly drawn sequences.
Overview of reported PBM E-score across a group of sequences:
Enter a number only.

Examples with their reported PBM E-score follow.
In [3]: df
Out[3]:
   sequence_chain  measured_result
0        ATACCCGC            0.253
1        AACTTTCA           -0.106
2        CCGGACCA            0.372
3        ACCGGCCT            0.181
4        GAAATCGC            0.196
5        GCGGACCA             0.31

(Q) Reported PBM E-score, sequence CCCGGCCC : ____
(A) 0.341

(Q) Reported PBM E-score, sequence GAACACGA : ____
(A) -0.0354

(Q) Reported PBM E-score, sequence ATACCCGA : ____
(A) 0.398

----------
Overview of reported PBM E-score across a group of sequences:
- Measured on: Hap1 (UniProt P0CE41)
- Assay notes: PBM E-score (8-mer binding enrichment) (E-score (-0.5 to 0.5)); higher = stronger / more preferred TF binding
- Study conditions: protein concentration: 200 nM; construct: GST-DNA-binding domain
Over roughly 33,000 sequences, “E-score (-0.5 to 0.5)” has its median near -0.053; the highest 2% begin near 0.37. This is one part of a sample in which the highest values are shown more often than they occur.
Enter a number only.

>>> df
   sequence_chain            measured_on  measure_name  measured_result
0        TGCCGACA  Hap1 (UniProt P0CE41)   PBM E-score            0.223
1        AGTATGTA  Hap1 (UniProt P0CE41)   PBM E-score           -0.162
2        AGTGCACT  Hap1 (UniProt P0CE41)   PBM E-score          -0.0451

(Q) Reported PBM E-score, sequence AACGACCC : ____
(A) 0.00262

(Q) Reported PBM E-score, sequence AAGTCCAA : ____
(A) -0.00743

(Q) Reported PBM E-score, sequence AAGTCCTA : ____
(A) 0.0348

(Q) Reported PBM E-score, sequence GACCGAAA : ____
(A) 0.385

(Q) Reported PBM E-score, sequence GACCGAAC : ____
(A) 0.347

(Q) Reported PBM E-score, sequence CTACTCCA : ____
(A) -0.0772

(Q) Reported PBM E-score, sequence AAGTCCGA : ____
(A) 0.467

(Q) Reported PBM E-score, sequence CGCCGTAA : ____
(A) 0.283

(Q) Reported PBM E-score, sequence TAGTCCGA : ____
(A) 0.42

(Q) Reported PBM E-score, sequence CACCGAAA : ____
(A) 0.261

(Q) Reported PBM E-score, sequence AGTGGACG : ____
(A) 0.0359

(Q) Reported PBM E-score, sequence GGCCGACA : ____
(A) 0.383

(Q) Reported PBM E-score, sequence AGTTTGTC : ____
(A) -0.117

(Q) Reported PBM E-score, sequence AGTCTTCC : ____
(A) -0.0885
